- Target desc: ERK2 (Homo sapiens, UniProt P28482)
- Construct: purchased Jubilant Biosys
- Sequence (P28482 whole entry): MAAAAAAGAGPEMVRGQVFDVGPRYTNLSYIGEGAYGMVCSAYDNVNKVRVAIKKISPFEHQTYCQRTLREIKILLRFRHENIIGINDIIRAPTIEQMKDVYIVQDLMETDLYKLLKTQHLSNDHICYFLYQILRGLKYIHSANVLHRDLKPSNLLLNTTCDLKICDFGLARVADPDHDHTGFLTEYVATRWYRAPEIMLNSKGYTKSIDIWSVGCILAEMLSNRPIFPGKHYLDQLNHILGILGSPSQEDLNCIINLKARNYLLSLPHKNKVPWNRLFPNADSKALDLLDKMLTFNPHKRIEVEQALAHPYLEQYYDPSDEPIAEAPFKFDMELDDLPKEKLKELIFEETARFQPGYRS
- Experiment: ERK2 HTRF (biochemical) assay
- Condition context: HTRF
pIC50: −log10 of the molar value.
Readout name: pIC50

> print(dat)
                                   compound  readout.name  value.measured
1  Cc1cnc(NC2CCOC2)nc1-n1cnc(C(=O)NC(CN)c2cccc(Cl)c2)c1 (stereo not shown) [Compound 235]         pIC50          ≥ 7.30
2  Cc1cnc(Nc2ccc3c(c2)OCO3)nc1-n1cc(NC(=O)N[C@@H](CO)c2cccc(Cl)c2)cn1 [Compound 51]         pIC50    7.00 to 7.30
3  Cc1cnc(NCc2cccnc2)cc1-n1ccc(C(=O)NC(CO)c2ccc(F)c(Cl)c2)c1 (stereo not shown) [Compound 193]         pIC50    6.30 to 7.00

**Q:** What does the data say about its pIC50? Entry: Cc1cnc(NC2CCOCC2)nc1-n1cnc(C(=O)NC(CO)c2cccc(C(C)(C)C)c2)c1 (stereo not shown) [Example 258]
**A:** ≥ 7.30

**Q:** Consider the compound Cc1cnc(N[C@H]2CCOC2)nc1-n1ccc(C(=O)NC(CO)c2ccc(F)cc2)c1 (stereo partly shown) [Compound 204] and give its measured pIC50.
**A:** 7.00 to 7.30

**Q:** Any idea what pIC50 was measured for Cc1cnc(Nc2ccc3c(c2)OC(F)(F)O3)cc1-n1ccc(C(=O)NC(CO)c2cccc(Cl)c2)c1 (stereo not shown) [Compound 92] ?
**A:** ≥ 7.30

* * *

- Target desc: ERK1 (Homo sapiens)
- Construct: purchased Jubilant Biosys
- Sequence (P27361 whole entry): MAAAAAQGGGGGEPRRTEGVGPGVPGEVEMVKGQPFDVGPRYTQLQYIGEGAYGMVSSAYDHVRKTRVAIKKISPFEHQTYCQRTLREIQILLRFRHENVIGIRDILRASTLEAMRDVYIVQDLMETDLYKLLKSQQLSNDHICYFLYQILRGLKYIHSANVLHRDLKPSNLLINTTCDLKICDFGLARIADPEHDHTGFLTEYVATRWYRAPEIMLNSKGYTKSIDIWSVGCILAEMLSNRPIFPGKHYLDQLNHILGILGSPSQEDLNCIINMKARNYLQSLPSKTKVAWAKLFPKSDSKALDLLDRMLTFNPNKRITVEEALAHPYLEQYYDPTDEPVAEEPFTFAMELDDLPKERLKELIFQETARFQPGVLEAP
- Experiment: ERK1 HTRF (biochemical) assay
- Condition context: HTRF
pIC50: −log10 of the molar value.
pIC50 listing for selected compounds.

> print(dat)
                                   compound  readout.name  value.measured
1  Cc1cnc(NC2CC=CCC2)nc1-n1cnc(C(=O)N[C@H](CN)c2cccc(Cl)c2)c1 (stereo partly shown)         pIC50          > 7.30

**Q:** Fill blank: measured pIC50 of the compound Cc1cnc(Nc2ccc3c(c2)OCO3)nc1-n1ccc(C(=O)NC(CO)c2ccccc2)c1 (stereo not shown) is ____.
**A:** > 7.30

**Q:** Dear colleague, I am looking for the recorded pIC50 of the following compound: Cc1cnc(Nc2ccc3c(c2)OCO3)nc1-n1ccc(C(=O)NC(CO)c2ccc(F)cc2)c1 (stereo not shown)
**A:** > 7.30

* * *

pIC50 reference
- Target desc: ERK2 (Homo sapiens)
- Construct: purchased Jubilant Biosys
- Experiment: ERK2 HTRF (biochemical) assay
- Condition context: HTRF
pIC50: −log10 of the molar value.

> print(dat)
                                   compound          target.desc  value.measured
1  Cc1cnc(Nc2ccc3c(c2)CCO3)nc1-n1ccc(C(=O)NC(CO)c2cccc(Cl)c2)c1 (centres unmarked) [Compound 137]  ERK2 (Homo sapiens)          ≥ 7.30

**Q:** Field: pIC50 (ERK2 (Homo sapiens)). Entry: O=C(Nc1cnn(-c2ccnc(Nc3ccccc3)n2)c1)N[C@H](CO)c1cccc(Cl)c1 [Compound 12]
**A:** ≥ 7.30

**Q:** Lab note: need pIC50 with ERK2 (Homo sapiens) for entry CC[C@@H](CO)Nc1ncc(C)c(-n2cnc(C(=O)N[C@H](CO)c3cccc(Cl)c3)c2)n1 [Compound 220] , please look it up.
**A:** ≥ 7.30

**Q:** Quick check: pIC50 on ERK2 (Homo sapiens), item Cc1cnc(N[C@@H]2CCOC2)nc1-n1cnc(C(=O)N[C@H](CN)c2cccc(Cl)c2)c1 [Example 264] ?
**A:** ≥ 7.30

**Q:** Reported pIC50 for ERK2 (Homo sapiens), given O=C(Nc1cnn(-c2ccnc(Nc3ccccc3Cl)n2)c1)N[C@@H](CO)c1ccccc1 [Compound 4] ?
**A:** < 5.60
